system: Spleen; experiment: Drug level in immunosuppressed Swiss Webster mouse spleen with pulmonary aspergillosis assessed as compound level per gram of tissue at 5 mg/kg/day, iv for 5 days measured on day 6; format: ADME, organism-based; design: route intravenous; conditions: in vivo, 120 h

[
  {
    "compound": "CC[C@H](C)C[C@H](C)CCCCCCCCC(=O)N[C@H]1C[C@@H](O)[C@@H](NCCN)NC(=O)[C@@H]2[C@@H](O)CCN2C(=O)[C@H]([C@H](O)CCN)NC(=O)[C@H]([C@H](O)[C@@H](O)c2ccc(O)cc2)NC(=O)[C@@H]2C[C@@H](O)CN2C(=O)[C@H]([C@@H](C)O)NC1=O [CASPOFUNGIN]",
    "system-name": "Spleen",
    "readout-unit": "µg/g",
    "tissue concentration": 31.6
  }
]

// provenance: ChEMBL document CHEMBL1687768
